Reference source: patent US7303763B2

# EXPERIMENTAL_PROTOCOL: Accelerated stability study of coated 0.625 mg conjugated estrogens tablets (active compounds and degradation products per USP, LOD)
# Format: physicochemical
# TEST_SETTINGS: acrylic-coated tablets, Lot EXPWS 1251; 50c, 75% RH/2 wks
In this section we review reported % Found values for a set of compounds.
MEASUREMENT_NAME: % Found (%)

>  <COMPOUND>
C[C@]12CCC3=C(CCc4cc(O)ccc43)[C@@H]1CCC2=O [d8,9 dehydroesterone]

>  <MEASUREMENT_NAME>
% Found

>  <RECORDED_RESULT>
4.07

$$$$
>  <COMPOUND>
C[C@]12CC[C@H]3C(=CCc4cc(O)ccc43)[C@@H]1CCC2=O

>  <MEASUREMENT_NAME>
% Found

>  <RECORDED_RESULT>
26.5

$$$$
>  <COMPOUND>
C[C@]12CCc3c(ccc4cc(O)ccc34)[C@@H]1CC[C@H]2O [17a-dihydroequilenin]

>  <MEASUREMENT_NAME>
% Found

>  <RECORDED_RESULT>
1.79

$$$$
>  <COMPOUND>
C[C@]12CC[C@H]3C(=CCc4cc(O)ccc43)[C@@H]1CC[C@@H]2O [17b-dihydroequilin]

>  <MEASUREMENT_NAME>
% Found

>  <RECORDED_RESULT>
2.2

$$$$
>  <COMPOUND>
C[C@]12CC[C@@H]3c4ccc(O)cc4CC[C@H]3[C@@H]1CC[C@H]2O [17a-estradiol]

>  <MEASUREMENT_NAME>
% Found

>  <RECORDED_RESULT>
4.5

$$$$
>  <COMPOUND>
C[C@]12CC[C@@H]3c4ccc(O)cc4CC[C@H]3[C@@H]1CC[C@@H]2O [17b-estradiol]

>  <MEASUREMENT_NAME>
% Found

>  <RECORDED_RESULT>
1.11

$$$$
>  <COMPOUND>
C[C@]12CC[C@H]3C(=CCc4cc(O)ccc43)[C@@H]1CC[C@H]2O [17a-dihydroequilin]

>  <MEASUREMENT_NAME>
% Found

>  <RECORDED_RESULT>
17.4

$$$$
>  <COMPOUND>
C[C@]12CCc3c(ccc4cc(O)ccc34)C1CCC2O (stereo partly drawn) [17b-dihydroequilenin]

>  <MEASUREMENT_NAME>
% Found

>  <RECORDED_RESULT>
0.67

$$$$
>  <COMPOUND>
C[C@]12CCc3c(ccc4cc(O)ccc34)[C@@H]1CCC2=O

>  <MEASUREMENT_NAME>
% Found

>  <RECORDED_RESULT>
2.5

$$$$

====

# EXPERIMENTAL_PROTOCOL: Accelerated stability study of coated 0.625 mg conjugated estrogens tablets (active compounds and degradation products per USP, LOD)
# Assay type: physicochemical
# TEST_SETTINGS: acrylic-coated tablets, Lot EXPWS 1251; 40c, 75% RH/3m
Rule: % Found under 4% gives rule not met, otherwise rule met.

>  <MOLECULE>
C[C@]12CCc3c(ccc4cc(O)ccc34)C1CCC2O (stereo partly drawn) [17b-dihydroequilenin]

>  <LABEL_CLASS>
rule not met

$$$$
>  <MOLECULE>
C[C@]12CC[C@@H]3c4ccc(O)cc4CC[C@H]3[C@@H]1CC[C@@H]2O [17b-estradiol]

>  <LABEL_CLASS>
rule not met

$$$$
>  <MOLECULE>
C[C@]12CC[C@H]3C(=CCc4cc(O)ccc43)[C@@H]1CC[C@H]2O [17a-dihydroequilin]

>  <LABEL_CLASS>
rule met

$$$$
>  <MOLECULE>
C[C@]12CC[C@H]3C(=CCc4cc(O)ccc43)[C@@H]1CC[C@@H]2O [17b-dihydroequilin]

>  <LABEL_CLASS>
rule not met

$$$$
>  <MOLECULE>
C[C@]12CC[C@@H]3c4ccc(O)cc4CC[C@H]3[C@@H]1CC[C@H]2O [17a-estradiol]

>  <LABEL_CLASS>
rule met

$$$$
>  <MOLECULE>
C[C@]12CCc3c(ccc4cc(O)ccc34)[C@@H]1CCC2=O

>  <LABEL_CLASS>
rule not met

$$$$
>  <MOLECULE>
C[C@]12CCc3c(ccc4cc(O)ccc34)[C@@H]1CC[C@H]2O [17a-dihydroequilenin]

>  <LABEL_CLASS>
rule not met

$$$$
>  <MOLECULE>
C[C@]12CC[C@H]3C(=CCc4cc(O)ccc43)[C@@H]1CCC2=O

>  <LABEL_CLASS>
rule met

$$$$
